# protocol_text: Flavopiridol plasma pharmacokinetics in patients
# Type: in vivo, human
# setup_conditions: human, plasma, intravenous
experimental_readout: Cmax
I'd appreciate it if you included the unit after the number.

In one line, give reported Cmax of the entry CN1CC[C@H](c2c(O)cc(O)c3c(=O)cc(-c4ccccc4Cl)oc23)[C@H](O)C1 .
3.92 µM
